- TGT: intracellular arginase in macrophages isolated from murine bone marrow (BMDM) (Mus musculus, UniProt Q61176)
- Construct: endogenous in cells
- Sequence (Q61176 1-323): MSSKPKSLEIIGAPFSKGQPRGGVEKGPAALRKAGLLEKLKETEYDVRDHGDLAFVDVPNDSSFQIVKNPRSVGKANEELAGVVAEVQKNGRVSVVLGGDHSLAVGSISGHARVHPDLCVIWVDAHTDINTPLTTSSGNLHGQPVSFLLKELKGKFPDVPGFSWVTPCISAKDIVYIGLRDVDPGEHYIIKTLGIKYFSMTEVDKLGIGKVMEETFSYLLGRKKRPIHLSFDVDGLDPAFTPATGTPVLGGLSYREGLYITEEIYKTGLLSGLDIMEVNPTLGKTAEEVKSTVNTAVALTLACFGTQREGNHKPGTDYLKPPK
- ASSAY: Cell-based assay: intracellular arginase in bone marrow derived macrophages (BMDM), urea level
- APPLIED_CONDITIONS: murine BMDM with M-CSF and IL-4, urea measured 24 hours after compound; * = most potent diastereoisomer or mixture of diastereoisomers; read-out: Activity Class (BMDM)
Where a name gives a salt, the structure may show the parent alone.
MEASUREMENT_TYPE: IC50

[
  {
    "MOLECULE": "N[C@]1(C(=O)O)C[C@H](CCB(O)O)CC[C@H]1CN1CCCCC1 (racemic) [Example 31, dihydrochloride]",
    "MEASUREMENT_TYPE": "IC50",
    "ASSAY_RESULT": "0.001 to 0.1 µM"
  },
  {
    "MOLECULE": "CN(Cc1ccc(Cl)c(Cl)c1)C[C@@H]1CC[C@@H](CCB(O)O)C[C@]1(N)C(=O)O (racemic) [Example 28, dihydrochloride]",
    "MEASUREMENT_TYPE": "IC50",
    "ASSAY_RESULT": "10 to 100 µM"
  },
  {
    "MOLECULE": "CC1(C)CCN(C[C@@H]2CC[C@@H](CCB(O)O)C[C@]2(N)C(=O)O)CC1 (racemic) [Example 26, dihydrochloride]",
    "MEASUREMENT_TYPE": "IC50",
    "ASSAY_RESULT": "1 to 10 µM"
  }
]

// next entry
Please give the measured IC50 for this molecule: N[C@@]1(C(=O)O)CCC[C@@H](CCB(O)O)C1 (racemic) [Example 10, hydrochloride]
10 to 100 µM

* * *

For each record, write down the corresponding pIC50.
- TGT: intracellular arginase in macrophages isolated from murine bone marrow (BMDM) (Mus musculus)
- Construct: endogenous in cells
- Sequence (Q61176 1-323): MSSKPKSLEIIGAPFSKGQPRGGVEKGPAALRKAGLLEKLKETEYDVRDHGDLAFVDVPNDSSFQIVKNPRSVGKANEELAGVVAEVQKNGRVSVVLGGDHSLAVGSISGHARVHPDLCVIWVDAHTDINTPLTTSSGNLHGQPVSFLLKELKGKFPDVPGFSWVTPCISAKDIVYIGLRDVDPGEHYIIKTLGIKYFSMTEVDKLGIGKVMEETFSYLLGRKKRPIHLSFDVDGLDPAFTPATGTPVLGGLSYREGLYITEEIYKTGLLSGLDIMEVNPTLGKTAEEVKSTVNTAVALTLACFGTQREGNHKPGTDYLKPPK
- ASSAY: Cell-based assay: intracellular arginase in bone marrow derived macrophages (BMDM), urea level
- APPLIED_CONDITIONS: murine BMDM with M-CSF and IL-4, urea measured 24 hours after compound; * = most potent diastereoisomer or mixture of diastereoisomers; read-out: Activity Class (BMDM)
pIC50: −log10 of the molar value. Counter-ions that a name gives are not always drawn.

Worked cases, pIC50 given:
[
  {
    "MOLECULE": "CN(C)C[C@@H]1CC[C@@H](CCB(O)O)C[C@]1(N)C(=O)O",
    "pIC50": "7.00 to 9.00"
  },
  {
    "MOLECULE": "N[C@@]1(C(=O)O)CNC[C@@H](CCB(O)O)C1 (racemic) [Example 57, dihydrochloride]",
    "pIC50": "4.00 to 5.00"
  },
  {
    "MOLECULE": "CC(C)(C)NC[C@@H]1CC[C@@H](CCB(O)O)C[C@]1(N)C(=O)O (racemic) [Example 33, dihydrochloride]",
    "pIC50": "6.00 to 7.00"
  },
  {
    "MOLECULE": "N[C@@](CCCCB(O)O)(C(=O)O)C1CCN(Cc2ccc(Cl)c(Cl)c2)CC1 [Comparative example 3, reference compound]",
    "pIC50": "5.00 to 6.00"
  }
]

Answer for every listed entry: what is its pIC50? The entries follow.
1. CC1(C)[C@H]2C[C@@H]3OB(CC[C@@H]4CC[C@@H](CN5CCCC5)[C@@](N)(C(=O)O)C4)O[C@]3(C)[C@@H]1C2 [Example 45, dihydrochloride]
2. CNC1(C(=O)O)C[C@H](CCB(O)O)CCC1CN (single isomer, unassigned) [Example 68, dihydrochloride]
3. N[C@]1(C(=O)O)C[C@H](CCB(O)O)CC[C@H]1CN1CCCC1 [Example 71]

1: 7.00 to 9.00; 2: 4.00 to 5.00; 3: 7.00 to 9.00

* * *

- TGT: recombinant human arginase 1 (Homo sapiens)
- Sequence (P05089 whole entry): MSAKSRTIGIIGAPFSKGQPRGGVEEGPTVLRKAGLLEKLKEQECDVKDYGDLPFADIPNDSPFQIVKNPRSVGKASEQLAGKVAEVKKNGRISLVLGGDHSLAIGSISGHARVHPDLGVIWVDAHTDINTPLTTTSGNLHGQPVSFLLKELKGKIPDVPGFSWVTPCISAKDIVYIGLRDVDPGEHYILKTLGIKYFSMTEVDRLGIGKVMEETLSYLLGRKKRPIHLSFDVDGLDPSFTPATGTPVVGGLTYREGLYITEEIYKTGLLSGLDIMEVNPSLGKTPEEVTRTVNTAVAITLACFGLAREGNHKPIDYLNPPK
- ASSAY: Human arginase activity assay (urea measurement), arginase 1
- APPLIED_CONDITIONS: recombinant human arginase 1, pH 7.4, 37° C., 60 min; * = value for the most potent diastereoisomer or the mixture of diastereoisomers; read-out: Activity Class (ARG I)
Where a name gives a salt, the structure may show the parent alone.
MEASUREMENT_TYPE: IC50

Here's what some known entries look like.
[
  {
    "COMPOUND": "CCN(C)C[C@@H]1CC[C@@H](CCB(O)O)C[C@]1(N)C(=O)O",
    "IC50": "1 to 100 nM"
  },
  {
    "COMPOUND": "N[C@]1(C(=O)O)C[C@H](CCB(O)O)CC[C@H]1CN1CCCC1 (racemic) [Example 22, dihydrochloride]",
    "IC50": "1 to 100 nM"
  },
  {
    "COMPOUND": "NC[C@@H]1C[C@@H](CCB(O)O)CC(N)(C(=O)O)C1 (mixture of isomers) [Example 54, dihydrochloride]",
    "IC50": "100 to 1000 nM"
  },
  {
    "COMPOUND": "N[C@]1(C(=O)O)C[C@H](CCB(O)O)CC[C@H]1CN1CCCCC1 [Example 70]",
    "IC50": "1 to 100 nM"
  },
  {
    "COMPOUND": "NC1(C(=O)O)CC(CCB(O)O)CCC1CO (stereo not drawn) [Example 49, hydrochloride]",
    "IC50": "1000 to 10000 nM"
  },
  {
    "COMPOUND": "NCC1CCC(CCB(O)O)CC1(N)C(=O)O (stereo not drawn)",
    "IC50": "1 to 100 nM"
  },
  {
    "COMPOUND": "CC1=CCC(CCB(O)O)CC1(N)C(=O)O (stereo not drawn) [Example 51, hydrochloride]",
    "IC50": "100 to 1000 nM"
  },
  {
    "COMPOUND": "NC1(C(=O)O)CC(CCB(O)O)CCC1CCN1CCCC1 (racemic) [Example 25, dihydrochloride]",
    "IC50": "1 to 100 nM"
  }
]

Hi! Can you tell me IC50 for each of these compounds?
1. NC1(C(=O)O)CC(CCB(O)O)CCC1(O)Cc1ccc(Cl)cc1 (single isomer, unassigned) [Example 52, hydrochloride]
2. N[C@@]1(C(=O)O)CNC[C@@H](CCB(O)O)C1 (racemic) [Example 57, dihydrochloride]
3. CN1C[C@@H](CCB(O)O)C[C@](N)(C(=O)O)C1 (racemic)
4. N[C@]1(C(=O)O)C[C@H](CCB(O)O)CC[C@H]1CN1Cc2ccccc2C1 (racemic) [Example 29, dihydrochloride]

10000 to 100000 nM
1000 to 10000 nM
1000 to 10000 nM
100 to 1000 nM

* * *

- TGT: intracellular arginase in macrophages isolated from murine bone marrow (BMDM) (Mus musculus, UniProt Q61176)
- Construct: endogenous in cells; host or cells: primary bone marrow derived macrophages from Balb/c mice, M-CSF and IL-4 treated
- ASSAY: Cell-based assay: intracellular arginase in bone marrow derived macrophages (BMDM), urea level
- Design: species or system Balb/c mice
- APPLIED_CONDITIONS: murine BMDM with M-CSF and IL-4, urea measured 24 hours after compound; * = most potent diastereoisomer or mixture of diastereoisomers; read-out: Activity Class (BMDM)
pIC50: −log10 of the molar value. Where a name gives a salt, the structure may show the parent alone.
Give measured pIC50 for each item. Keep answers brief.

Past entries and their recorded results:
[
  {
    "MOLECULE": "NC1CCC(CCB(O)O)CC1(N)C(=O)O (single isomer, unassigned) [Example 48, dihydrochloride]",
    "pIC50": "4.00 to 5.00"
  },
  {
    "MOLECULE": "CC(C)N(C)C[C@@H]1CC[C@@H](CCB(O)O)C[C@]1(N)C(=O)O (racemic)",
    "pIC50": "6.00 to 7.00"
  },
  {
    "MOLECULE": "CN(C)C1CC(CCB(O)O)CC(N)(C(=O)O)C1 (centres unmarked) [Example 65, dihydrochloride]",
    "pIC50": "< 4.00"
  },
  {
    "MOLECULE": "N[C@@H](CCCCB(O)O)C(=O)O [Comparative example 1, reference compound]",
    "pIC50": "5.00 to 6.00"
  }
]

Shifting focus to the molecule that follows.
What does the data say about its pIC50? Entry: N[C@]1(C(=O)O)C[C@H](CCB(O)O)CC[C@H]1CN1C2CCC1CC2 (racemic) [Example 34, dihydrochloride]
6.00 to 7.00
